# Test system: Aorta
# EXPERIMENT: Vasodilatory activity in Wistar rat thoracic aorta assessed as relaxation of L-phenylephrine-induced contraction after 120 mins in presence of 1 uM sGC inhibitor ODQ
# Format: functional, tissue-based
# TEST_CONTEXT: 2 h
REPORTED_METRIC: EC50 (µM)
Answers are plain numbers, in µM.

Give EC50 for each of the items listed below.
1. CCCCNC(=O)NS(=O)(=O)c1ccc(OCc2no[n+]([O-])c2C(N)=O)cc1
2. CCCCNC(=O)NS(=O)(=O)c1ccc(Oc2no[n+]([O-])c2S(=O)(=O)c2ccccc2)cc1
3. CCCCNC(=O)NS(=O)(=O)c1ccc(OCC(CO[N+](=O)[O-])O[N+](=O)[O-])cc1 (stereo unspecified)
4. CCCCNC(=O)NS(=O)(=O)c1ccc(OCc2no[n+]([O-])c2C#N)cc1

1: 57; 2: 0.22; 3: 61; 4: 0.9

====

# EXPERIMENT: Induction of nitrite production in rat INS-1E cells assessed per well at 200 uM after 2 hrs by Griess method in presence of 2 mM glucose
# Format: functional
Hi! Could you tag entries with Activity below 6 nmol as y, and those at or above as n? Much appreciated.

These solved cases illustrate the format of a correct answer.
COMPOUND | CLASS_LABEL
CCCCNC(=O)NS(=O)(=O)c1ccc(C)cc1 [TOLBUTAMIDE] | y
CCCCNC(=O)NS(=O)(=O)c1ccc(OCC(CO[N+](=O)[O-])O[N+](=O)[O-])cc1 (configuration not stated) | y
CCCCNC(=O)NS(=O)(=O)c1ccc(Oc2no[n+]([O-])c2S(=O)(=O)c2ccccc2)cc1 | n
CCCCNC(=O)NS(=O)(=O)c1ccc(OCCCO[N+](=O)[O-])cc1 | y
CCCCNC(=O)NS(=O)(=O)c1ccc(OCc2no[n+]([O-])c2C(N)=O)cc1 | y
CCCCNC(=O)NS(=O)(=O)c1ccc(OCc2no[n+]([O-])c2C#N)cc1 | n

I wonder whether CCCCNC(=O)NS(=O)(=O)c1ccc(OCc2no[n+]([O-])c2-c2ccccc2)cc1 has Activity below 6 nmol. Can you tell?
n

====

Exercise: for every item that follows, state its recorded Activity.
# EXPERIMENT: Induction of NO release in phosphate buffered saline of pH 7.4 after 1 hr by Griess assay in presence of 5 mM L-cysteine
# Format: physicochemical
# TEST_CONTEXT: buffer, pH 7.4, 1 h
Give bare numbers, in %.

MOLECULE | MEASURED
CCCCNC(=O)NS(=O)(=O)c1ccc(OCC(CO[N+](=O)[O-])O[N+](=O)[O-])cc1 (centres undefined) | 4.3

Reported Activity for CCCCNC(=O)NS(=O)(=O)c1ccc(OCc2no[n+]([O-])c2C(N)=O)cc1 : what is it?
9.1

====

Please go through the items and note down their Activity.
# EXPERIMENT: Induction of glucose-stimulated insulin release from rat INS-1E cells at 200 uM after 1 hr by coated charcoal immunoassay in presence of 2 mM glucose relative to control
# Assay type: functional
The number alone won't do; follow it with the unit.

MOLECULE | Activity
CCCCNC(=O)NS(=O)(=O)c1ccc(OCCCO[N+](=O)[O-])cc1 | 2.38%
CCCCNC(=O)NS(=O)(=O)c1ccc(C)cc1 [TOLBUTAMIDE] | 2.97%
CCCCNC(=O)NS(=O)(=O)c1ccc(OCc2no[n+]([O-])c2-c2ccccc2)cc1 | 2.41%
CCCCNC(=O)NS(=O)(=O)c1ccc(OCc2no[n+]([O-])c2C(N)=O)cc1 | 1.94%

# ---- query molecule ----
Entry CCCCNC(=O)NS(=O)(=O)c1ccc(Oc2no[n+]([O-])c2S(=O)(=O)c2ccccc2)cc1 has what Activity?
4.33%
